Ref: a collection of fitness landscapes (doi:10.1126/science.1257360)

B1: PhoQ; a variant is named by its letters at X, in order, P23837 (parent)
chain: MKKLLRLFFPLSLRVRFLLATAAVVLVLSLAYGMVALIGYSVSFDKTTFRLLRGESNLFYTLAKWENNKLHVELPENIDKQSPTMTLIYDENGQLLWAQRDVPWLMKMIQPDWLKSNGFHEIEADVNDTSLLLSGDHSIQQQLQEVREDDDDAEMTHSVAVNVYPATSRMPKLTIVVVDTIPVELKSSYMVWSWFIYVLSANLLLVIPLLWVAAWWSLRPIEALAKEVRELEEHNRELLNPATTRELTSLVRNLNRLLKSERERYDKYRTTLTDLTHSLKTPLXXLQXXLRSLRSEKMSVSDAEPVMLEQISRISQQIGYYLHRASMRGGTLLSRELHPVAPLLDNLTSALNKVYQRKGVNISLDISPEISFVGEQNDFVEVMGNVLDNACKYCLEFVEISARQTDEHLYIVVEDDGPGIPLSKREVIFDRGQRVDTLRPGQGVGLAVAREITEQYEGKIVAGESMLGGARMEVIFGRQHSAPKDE

Variants of: B1
METHOD_DESCRIPTION: enrichment ratio after two sorts for PhoP signalling (ratio (wild type AVST 3.29)); higher = more functional
MEASUREMENT_CONTEXT: with PhoP (E. coli)
In all, about 140,000 sequences were measured (“enrichment ratio after two sorts for PhoP signalling”: median about 0, highest 2% from about 11 on). The sample holds the highest values, similar sequences and a random draw of the others, so the mix is not that of the screen.
Item-by-item account of enrichment ratio

VARIANT_ANNOTATION: RIYR
enrichment ratio: ≤ 0.25
--
VARIANT_ANNOTATION: VADS
enrichment ratio: ≤ 0.25
--
VARIANT_ANNOTATION: AIMS
enrichment ratio: 14.3
--
VARIANT_ANNOTATION: ALVT
enrichment ratio: 1.4
--
VARIANT_ANNOTATION: TWFG
enrichment ratio: ≤ 0.25
--
VARIANT_ANNOTATION: EHKQ
enrichment ratio: ≤ 0.25
--
VARIANT_ANNOTATION: NQSL
enrichment ratio: ≤ 0.25
--
VARIANT_ANNOTATION: YRWT
enrichment ratio: ≤ 0.25
--
VARIANT_ANNOTATION: ANMD
enrichment ratio: ≤ 0.25
--
VARIANT_ANNOTATION: LMAI
enrichment ratio: ≤ 0.25
--
VARIANT_ANNOTATION: FIHC
enrichment ratio: ≤ 0.25
--
VARIANT_ANNOTATION: KLRA
enrichment ratio: ≤ 0.25
--
VARIANT_ANNOTATION: MNMC
enrichment ratio: 3.1
--
VARIANT_ANNOTATION: LNMC
enrichment ratio: 7.24
--
VARIANT_ANNOTATION: AAVT
enrichment ratio: 2.41
--
VARIANT_ANNOTATION: ATMS
enrichment ratio: 6.27
--
VARIANT_ANNOTATION: AHRA
enrichment ratio: ≤ 0.25
--
VARIANT_ANNOTATION: EVDI
enrichment ratio: ≤ 0.25
--
VARIANT_ANNOTATION: IKLA
enrichment ratio: ≤ 0.25
--
VARIANT_ANNOTATION: SYFV
enrichment ratio: ≤ 0.25
--
VARIANT_ANNOTATION: WRNH
enrichment ratio: ≤ 0.25
--
VARIANT_ANNOTATION: DIWR
enrichment ratio: ≤ 0.25
